- tested.on: Neuronal acetylcholine receptor subunit alpha-7 (Homo sapiens)
- Sequence (P36544 whole entry): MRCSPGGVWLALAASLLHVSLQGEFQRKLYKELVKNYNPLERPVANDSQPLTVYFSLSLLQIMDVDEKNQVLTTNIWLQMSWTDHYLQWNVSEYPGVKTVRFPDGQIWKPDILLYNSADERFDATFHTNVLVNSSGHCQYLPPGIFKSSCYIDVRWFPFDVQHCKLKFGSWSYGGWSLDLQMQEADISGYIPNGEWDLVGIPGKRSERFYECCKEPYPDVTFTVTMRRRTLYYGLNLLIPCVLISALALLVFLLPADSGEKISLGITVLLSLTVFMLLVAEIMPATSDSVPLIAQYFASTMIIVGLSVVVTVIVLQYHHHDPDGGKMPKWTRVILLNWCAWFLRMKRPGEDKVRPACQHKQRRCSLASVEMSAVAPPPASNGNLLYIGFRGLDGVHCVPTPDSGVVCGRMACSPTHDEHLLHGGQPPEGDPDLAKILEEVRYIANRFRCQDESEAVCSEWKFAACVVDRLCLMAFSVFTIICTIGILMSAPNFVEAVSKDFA
- assay.remarks: Positive allosteric modulation at human alpha7 nACHR expressed in Xenopus oocyte assessed as potentiation of ACh-induced current at holding potential of -80 mV measured as ACh EC50 at 1 uM by electrophysiology (Rvb = 176 uM)
pEC50: −log10 of the molar value.

>  <cpd.smiles>
O=C(/C=C/c1ccc(O)cc1)c1cc(O)ccc1O

>  <tested.on>
Neuronal acetylcholine receptor subunit alpha-7 (Homo sapiens)

>  <pEC50>
4.25

$$$$
>  <cpd.smiles>
O=C(/C=C/c1ccc(O)cc1O)c1cc(O)ccc1O

>  <tested.on>
Neuronal acetylcholine receptor subunit alpha-7 (Homo sapiens)

>  <pEC50>
3.90

$$$$
